Hey, just so you know, these numbers are from patent US20240300905A1.

# System: Hennes-20 cells
# protocolSummary: Hennes-20 oncology screen (low vs high plating density, alamar Blue)
# Assay type: cell-based
# conditionDescription: 72 h, Hennes-20 cells, 72 hours compound incubation, alamar Blue; read-out: EC50
Measured EC50 accompanies every entry in the list below.
measuredMetric: EC50

> print(dat)
                                smilesentry      assaysystem  reportedresult
1  Cn1cccc1CCNc1ncnc2cc(N3CCN(c4ccc5c(NCCc6cccn6C)ncnc5c4)CC3)ccc12  Hennes-20 cells       < 2500 nM
2  CCCCNc1ncnc2cc(N(C)CCN(C)c3ccc4c(NCCCC)ncnc4c3)ccc12  Hennes-20 cells          500 nM
3  CC(C)CCNc1ncnc2cc(N3CCN(c4ccc5c(NCC(C)(C)C)ncnc5c4)CC3)ccc12  Hennes-20 cells        < 500 nM
4  CC(C)CCN(C)c1ncnc2cc(N3CCN(c4ccc5c(NCCc6ccncc6)ncnc5c4)CC3)ccc12  Hennes-20 cells         2500 nM
5  c1ccc(CCNc2ncnc3cc(N4CCN(c5ccc6c(NCCc7ccccn7)ncnc6c5)CC4)ccc23)nc1  Hennes-20 cells      < 12500 nM
6  CC(C)(C)CNc1ncnc2cc(N3CCN(c4ccc5c(NCCc6ccccn6)ncnc5c4)CC3)ccc12  Hennes-20 cells          500 nM
7  CCCCNc1ncnc2cc(N(C)CCN(CC)c3ccc4c(NCCC(C)C)ncnc4c3)ccc12  Hennes-20 cells       < 2500 nM
8  CC(C)(C)CNc1ncnc2cc(N3CCN(c4ccc5c(NCCC6CCNCC6)ncnc5c4)CC3)ccc12  Hennes-20 cells      > 12500 nM

* * *

Recorded EC50 for the following compounds
# Test system: Hennes-20 cells
# protocolSummary: Hennes-20 oncology screen (low vs high plating density, alamar Blue)
# Assay type: cell-based
# conditionDescription: 72 h, Hennes-20 cells, 72 hours compound incubation, alamar Blue; read-out: EC50
measuredMetric: EC50 (nM)

> print(dat)
                                   compound  measuredmetric  boundsign  reportedresult
1  CCN(CCN(CC)c1ccc2c(NCC(C)(C)C)ncnc2c1)c1ccc2c(NCCC(C)C)ncnc2c1            EC50          <            2500
2  CC(C)CNc1ncnc2cc(N3CCN(c4ccc5c(NCCC6CCNCC6)ncnc5c4)CC3)ccc12            EC50          >           12500
3  CC(C)CNc1ncnc2cc(N3CCN(c4ccc5c(NCCc6ccncc6)ncnc5c4)CC3)ccc12            EC50          =            2500
4  c1cc(CCNc2ncnc3cc(N4CCN(c5ccc6c(NCCc7ccncc7)ncnc6c5)CC4)ccc23)ccn1            EC50          <           12500
5  CC(C)CNc1ncnc2cc(N3CCN(c4ccc5c(NCCc6ccccc6)ncnc5c4)CC3)ccc12            EC50          =            2500
6  CC(C)CCNc1ncnc2cc(N3CCN(c4ccc5c(NCCc6ccccn6)ncnc5c4)CC3)ccc12            EC50          =             500
7  CC(C)CCNc1ncnc2cc(N3CC(C)N(c4ccc5c(NCCC(C)C)ncnc5c4)CC3C)ccc12 (centres unmarked)            EC50          =            2500
8  CCCCNc1ncnc2cc(N(C)CCN(CC)c3ccc4c(NCCCC)ncnc4c3)ccc12            EC50          <            2500

* * *

# Tested on: Hennes-20 cells
# protocolSummary: Hennes-20 oncology screen (low vs high plating density, alamar Blue)
# Assay type: cell-based
# conditionDescription: Hennes-20 cells, 72 hours compound incubation, alamar Blue; read-out: EC50
pEC50: −log10 of the molar value.
Here the recorded pEC50 is given for each entry.
measuredMetric: pEC50

> print(dat)
                                   compound  measuredmetric  reportedresult
1  CC(C)CCNc1ncnc2cc(N3CCN(c4ccc5c(N(C)CC(C)C)ncnc5c4)CC3)ccc12 [Compound 23]           pEC50          > 5.60
2  CC(C)CCNc1ncnc2cc(N3CCN(c4ccc5c(N(C)CC(C)C)ncnc5c4)CC3)ccc12 [Compound 7]           pEC50          > 6.30

* * *

# Test system: Hennes-20 cells
# protocolSummary: Hennes-20 oncology screen (low vs high plating density, alamar Blue)
# Format: cell-based
# conditionDescription: 72 h, Hennes-20 cells, 72 hours compound incubation, alamar Blue; read-out: EC50
pEC50: −log10 of the molar value.
Measured pEC50 accompanies every entry in the list below.
measuredMetric: pEC50

> print(dat)
                                    compound  boundsign  reportedresult
 1  CCCCNc1ncnc2cc(N3CCN(c4ccc5c(NCCC(C)C)ncnc5c4)C(C)C3C)ccc12 (stereo not shown) [Compound 52]          =            5.60
 2  CC(C)CCNc1ncnc2cc(N3CCN(c4ccc5c(NCCCN(C)C)ncnc5c4)CC3)ccc12 [Compound 31]          >            4.90
 3  CC(C)CCN(C)c1ncnc2cc(N3CCN(c4ccc5c(NCCc6ccccc6)ncnc5c4)CC3)ccc12 [Compound 60]          =            5.60
 4  CCCCNc1ncnc2cc(N3CCN(c4ccc5c(NCCN6CCN(C)CC6)ncnc5c4)CC3)ccc12 [Compound 71]          <            5.60
 5  CCCCNc1ncnc2cc(N3CCN(c4ccc5c(NCCCC)ncnc5c4)C(C)C3)ccc12 (stereo not shown) [Compound 53]          =            6.30
 6  CC(C)CCNc1ncnc2cc(N3CCN(c4ccc5c(NCC(C)C)ncnc5c4)CC3)ccc12 [Compound 8]          >            6.30
 7  CC(C)CCNc1ncnc2cc(N3CCN(c4ccc5c(NCCc6nccs6)ncnc5c4)CC3)ccc12 [Compound 81]          =            6.30
 8  CCCCNc1ncnc2cc(N3CCN(c4ccc5c(NCCc6cccnc6)ncnc5c4)CC3)ccc12 [Compound 72]          =            5.60
 9  CCN(CCN(C)c1ccc2c(NCCC(C)C)ncnc2c1)c1ccc2c(NCCC(C)C)ncnc2c1 [Compound 96]          >            5.60
10  CC(C)CCNc1ncnc2cc(N3CCN(c4ccc5c(NCCc6ccccc6)ncnc5c4)CC3)ccc12 [Compound 11]          >            7.00
11  CCCCNc1ncnc2cc(N(CC)CCN(C)c3ccc4c(NCCC(C)C)ncnc4c3)ccc12 [Compound 92]          =            5.60
12  CCCCNc1ncnc2cc(N3CCN(c4ccc5c(N6CCC(C)(C)CC6)ncnc5c4)CC3)ccc12 [Compound 70]          =            6.30
13  CCCCNc1ncnc2cc(N3CCN(c4ccc5c(NCCC(C)C)ncnc5c4)CC3C)ccc12 (stereo not shown) [Compound 51]          =            6.30
14  CCN(CCN(C)c1ccc2c(NCC(C)(C)C)ncnc2c1)c1ccc2c(NCCC(C)C)ncnc2c1 [Compound 94]          >            5.60
15  CC(C)CCNc1ncnc2cc(N3CCN(c4ccc5c(NCCc6ccncc6)ncnc5c4)CC3)ccc12 [Compound 85]          >            4.90
16  CC(C)CCN(C)c1ncnc2cc(N3CCN(c4ccc5c(NCCC6CCNCC6)ncnc5c4)CC3)ccc12 [Compound 62]          <            4.90

* * *

Item-by-item account of EC50
# System: Hennes-20 cells
# protocolSummary: Hennes-20 oncology screen (low vs high plating density, alamar Blue)
# Format: cell-based
# conditionDescription: 72 h, Hennes-20 cells, 72 hours compound incubation, alamar Blue; read-out: EC50
measuredMetric: EC50

> print(dat)
                                 smilesentry  reportedresult
 1  CCCCNc1ncnc2cc(N3CCN(c4ccc5c(NCCc6ccccc6)ncnc5c4)CC3)ccc12        12500 nM
 2  CCCCNc1ncnc2cc(N(C)CCCN(C)c3ccc4c(NCCC(C)C)ncnc4c3)ccc12       < 2500 nM
 3  CC(C)CCNc1ncnc2cc(N(C)CCCN(C)c3ccc4c(NCCC(C)C)ncnc4c3)ccc12      < 12500 nM
 4  CCCCNc1ncnc2cc(N3CCN(c4ccc5c(NCCc6ccccn6)ncnc5c4)CC3)ccc12          500 nM
 5  CC(C)CCNc1ncnc2cc(N3CCN(c4ccc5c(NCCC6CCNCC6)ncnc5c4)CC3)ccc12      < 12500 nM
 6  CCCCNc1ncnc2cc(N3CCN(c4ccc5c(NCCc6ccncc6)ncnc5c4)CC3)ccc12         2500 nM
 7  CCCCNc1ncnc2cc(N3CCN(c4ccc5c(NCCC6CCNCC6)ncnc5c4)CC3)ccc12      > 12500 nM
 8  CC(C)CCNc1ncnc2cc(N3CCN(c4ccc5c(NC(C)C)ncnc5c4)CC3)ccc12        < 500 nM
 9  CCCCNc1ncnc2cc(N(C)CCN(C)c3ccc4c(NCCC(C)C)ncnc4c3)ccc12         2500 nM
10  CC(C)CCNc1ncnc2cc(N3CCN(c4ccc5c(NCCc6cccnc6)ncnc5c4)CC3)ccc12       < 2500 nM
11  CC(C)(C)CNc1ncnc2cc(N3CCN(c4ccc5c(NCCc6ccncc6)ncnc5c4)CC3)ccc12      < 12500 nM
12  c1ccc(CCNc2ncnc3cc(N4CCN(c5ccc6c(NCCc7ccccc7)ncnc6c5)CC4)ccc23)cc1        < 500 nM
13  CCCCNc1ncnc2cc(N(CC)CCN(CC)c3ccc4c(NCCC(C)C)ncnc4c3)ccc12         2500 nM
14  CCCCNc1ncnc2cc(N3CCN(c4ccc5c(NCCC(C)C)ncnc5c4)CC3)ccc12        < 500 nM
15  CC(C)CCNc1ncnc2cc(N3CCN(c4ccc5c(NCCN6CCN(C)CC6)ncnc5c4)CC3)ccc12      < 12500 nM
16  CC(C)CCNc1ncnc2cc(N(C)CCN(C)c3ccc4c(NCC(C)(C)C)ncnc4c3)ccc12         2500 nM
